B1: Pistol ribozyme (parent)
chain: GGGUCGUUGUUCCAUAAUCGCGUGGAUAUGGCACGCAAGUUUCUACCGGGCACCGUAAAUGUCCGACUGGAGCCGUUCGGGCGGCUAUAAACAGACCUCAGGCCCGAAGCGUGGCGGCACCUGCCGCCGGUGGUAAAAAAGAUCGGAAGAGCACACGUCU

Variants of: B1
Assay: aptazyme ON/OFF ratio, guanine; higher = stronger switching; co-transcriptional cleavage with and without guanine
Listed here: items and their measured aptazyme ON/OFF ratio.
quantity name: aptazyme ON/OFF ratio

>>> result("U7C U8G G9U U10A U11A C12A C13G")
1.14
>>> result("U8G G9A U10G U11C C12U C13G")
1.2
>>> result("U8A G9A U10A U11A C13G")
1.06
>>> result("U7A U8A G9U U10G C12G")
1.16
